Tested on: Plasmodium falciparum
Test: Screen against P. falciparum Asexual Blood Stage (ABS), at 5uM
Type: functional, Dd2
Settings: tested at 5 uM
Screen size: about 65,000 compounds; about 2,100 (3.2%) showed an effect of 50% or more. The median lay at about -52%. The entries come from a sample that favours strong results as a whole.
Note that class boundaries on INHIBITION are low (below -30%), medium (-30% to below 30%), high (30% or more)

Known results for molecules:
molecule: Cc1ccc2c(c1)C(NC1CCN(C)CC1)CCCO2 (stereo not drawn)
qualitative label: high

molecule: COc1ccc(CNCc2c(C(C)C)nn(C)c2OC)cn1
qualitative label: high

molecule: COc1c(CNC2CCc3ccccc32)c(C)nn1C (stereo not drawn)
qualitative label: high

molecule: COc1ccccc1CN1CCCC2(Cc3ccccc3CNC2=O)C1 (stereo not drawn)
qualitative label: high

molecule: COc1c(CNCc2ccc(N(C)C)nc2)c(C(C)C)nn1C
qualitative label: low

molecule: CC(C)c1nn(C)c(N(C)C)c1CNC1CCc2cc(F)ccc21 (stereo not drawn)
qualitative label: medium

molecule: Cc1cc(-c2cc(S(=O)(=O)N3C[C@H](C4CC4)[C@@H](N)C3)c(C)s2)[nH]n1
qualitative label: high

molecule: COc1c(CNC2CCOc3c(Cl)cccc32)c(C(C)C)nn1C (stereo not drawn)
qualitative label: low

Now turn to the next molecule.
*Q* Class? Entry: N#Cc1ccc(CN2CCCC3(Cc4ccccc4CNC3=O)C2)cc1 (stereo not drawn)
*A* medium

###

Test system: Plasmodium falciparum
Assay: Screen against P. falciparum Asexual Blood Stage (ABS), at 5uM
Type: functional, Dd2
Conditions: tested at 5 uM
The campaign covered roughly 65,000 compounds. About 2,100 (3.2%) showed an effect of 50% or more. The median lay at about -52%. Only a selection was taken, and strong results are over-represented in it overall.
metric: INHIBITION (%)
One number for each entry, in %.

compound: Cc1ncsc1CN1CC[C@H](O)[C@@H](n2cnc3c(N)ncnc32)CC1
assayed target: Plasmodium falciparum
INHIBITION (%): -98.6
//
compound: CC(=O)N1CCCC(c2ccccn2)C1 (stereo unspecified)
assayed target: Plasmodium falciparum
INHIBITION (%): -11.9
//
compound: Clc1ccc(CN2CCc3c(ncn3C3CC3)C2)c2ncccc12
assayed target: Plasmodium falciparum
INHIBITION (%): 30.3
//
compound: CC(=O)N1CCCC(c2ccc(Br)cn2)C1 (stereo unspecified)
assayed target: Plasmodium falciparum
INHIBITION (%): -147
//
compound: CC(=O)N(C)Cc1ccccc1NC(=O)N(C)CCc1cccs1
assayed target: Plasmodium falciparum
INHIBITION (%): -28.3

// next entry
*Q* Data request, read-out INHIBITION, for Cc1n[nH]c(C2CN(C(=O)c3ccco3)CCO2)n1 (stereo unspecified)
*A* -132

###

Field: INHIBITION. Provide a value for each of the molecules that follow.
Tested on: Plasmodium falciparum
Assay: Screen against P. falciparum Asexual Blood Stage (ABS), at 5uM
Type: functional, Dd2
Settings: tested at 5 uM
About 2,100 (3.2%) of roughly 65,000 compounds showed an effect of 50% or more. The median lay at about -52%. What follows is part of a selection rich in strong results, with near analogues and random picks from the rest.
Give bare numbers, in %.

Sample records with INHIBITION:
molecule: Cc1cc(C2CCCN(CCc3ccc4c(c3)CCO4)C2)n[nH]1 (stereo not drawn)
unit abbreviation: %
observed result: -25.4
//
molecule: O=C1CC[C@H]2[C@H](CCN2C(=O)C2CCOC2)N1Cc1ccncc1 (stereo partly drawn)
unit abbreviation: %
observed result: -87.6
//
molecule: CN1CCN(C2CCN(Cc3nnc(C(C)(C)C)o3)CC2)C1=O
unit abbreviation: %
observed result: -117
//
molecule: CC(NC(=O)NCCCN(C)S(C)(=O)=O)c1ccc(F)cc1 (stereo not drawn)
unit abbreviation: %
observed result: -109
//
molecule: COCCN(C(=O)c1ccccn1)c1nc2c(s1)CCc1c-2cnn1C
unit abbreviation: %
observed result: 6.99

Need INHIBITION for each of these molecules.
1. C1CCC(NCCN2CCOCC2)C1
2. N#Cc1cc(C#N)c(SCC(=O)NCc2ccc(F)cc2)nc1N
3. Cc1ccc(CN2CCc3c(nnn3C)C2COCc2ccccc2)s1 (stereo not drawn)
4. Cn1cc(NC(=O)c2cccc(-n3cnnn3)c2)cn1
5. COc1ncccc1CN1C[C@H]2C[C@@H](C(=O)NCC3CC3)N(C)[C@H]2C1
6. Cc1c[nH]c(C2COCCN2C(=O)c2n[nH]c(=O)c3ccccc23)n1 (stereo not drawn)
7. COc1ccc2c(c1)CC(C1CCOCC1)N(C(=O)c1cnccn1)C2 (stereo not drawn)

*A*
-99.9
-74.4
-109
-36
51.2
-96.3
-108

Need INHIBITION for each of these molecules.
1. Cc1cc(CN(C)C(C(=O)O)c2ccc(C(C)(C)C)cc2)on1 (stereo not drawn)
2. CCn1cc(NC(=O)C2CCN(Cc3nc(C(C)C)no3)CC2)cn1
3. O=C(c1ccncc1F)N1Cc2nc(CN3CCCCC3)oc2C1

*A*
1. -96.1
2. -86
3. -21.6

Need INHIBITION for each of these molecules.
1. O=C(Nc1cnn(COc2ccc(F)cc2Cl)c1)C1CC1
2. CS(=O)(=O)c1ccc(CN2C[C@@H]3CC[C@H]2CN(c2ncccn2)C3)cc1
3. CCc1cc(N2CCCNCC2)n2nc(C)c(C)c2n1
4. N#Cc1cc(C#N)c(SCCC(=O)Nc2ccc(F)cc2)nc1N
5. N#Cc1cc(C#N)c(SCC(=O)Nc2ccc(F)cc2)nc1N
6. CCc1cc(N2CCS(=O)(=O)CC2)n2nc(C)c(C)c2n1

*A*
1. 67.2
2. -136
3. 54.5
4. 13.7
5. 67.3
6. -16.5

Need INHIBITION for each of these molecules.
1. CN1[C@@H](C(=O)NCC2CC2)C[C@@H]2CN(Cc3ccoc3)C[C@@H]21
2. O=C(Nc1cnn(Cc2ccc(F)cc2Cl)c1)C1CC1

*A*
30.4
-0.313

###

Tested on: Plasmodium falciparum
Test: Screen against P. falciparum Asexual Blood Stage (ABS), at 5uM
Assay type: functional, Dd2
Details: tested at 5 uM
The whole screen tested about 65,000 compounds, of which about 2,100 (3.2%) showed an effect of 50% or more. The median lay at about -52%. This is one part of a sample in which strong results are shown more often than they occur.
Field: INHIBITION. Provide a value for each of the compounds that follow.
Numbers only, in %.

Sample records with INHIBITION:
compound: CCCc1ccc(OCCNCc2ccco2)c(OC)c1
unit abbreviation: %
observed result: 51.5
//
compound: c1cnnc(N2CCCC(NCc3nnc(-c4ccco4)o3)C2)c1 (configuration not stated)
unit abbreviation: %
observed result: -31.5
//
compound: CC(C)COc1ccccc1C(N)CC(C)C (configuration not stated)
unit abbreviation: %
observed result: 28.3
//
compound: COCCN1CCCCC12CC(=O)N(c1ccccc1OC)C2 (configuration not stated)
unit abbreviation: %
observed result: -78.3
//
compound: COc1cc(OC)cc(N2CCC(NCc3cc[nH]n3)C2)c1 (configuration not stated)
unit abbreviation: %
observed result: -39.5
//
compound: CCCN1CCC(c2nc3ccc(NCc4ccccc4)cn3n2)CC1
unit abbreviation: %
observed result: -1.75

Need INHIBITION for each of these compounds.
1. COc1ccc(C(=O)NCc2ccco2)nn1
2. Cc1c(C(C)NC(=O)N2CCN(C3CCCC3)CC2)cnn1C (configuration not stated)
3. CN(C)CC(C)(C)CN1CCC(c2ccnc(-c3cccc(O)c3)c2)C1 (configuration not stated)
4. CC(NC(=O)Cn1cc(-c2ccccc2)cn1)C1CC1 (configuration not stated)
5. COc1cc(CNC2CCN(c3ccccc3)C2)cc(OC)c1OC (configuration not stated)

*A*
[-126, -70.2, 69.5, -158, 64.6]

###

Test system: Plasmodium falciparum
Assay: Screen against P. falciparum Asexual Blood Stage (ABS), at 5uM
Assay type: functional, Dd2
Conditions: tested at 5 uM
About 2,100 (3.2%) of roughly 65,000 compounds showed an effect of 50% or more. The median lay at about -52%. The full list was thinned out, with strong results kept by preference.
Field: INHIBITION. Provide a value for each of the compounds that follow.
Numbers only, in %.

Sample records with INHIBITION:
compound: O=C(c1ncoc1C1CC1)N1CCN(CCOc2ccccc2)CC1
unit abbreviation: %
INHIBITION: -35.9
--
compound: CSc1ccc(C(=O)N2CCOCC2c2c(C)n[nH]c2C)o1 (stereo unspecified)
unit abbreviation: %
INHIBITION: -159
--
compound: O=C(c1cscn1)N1CCO[C@H]2[C@@H](Oc3ccccn3)CC[C@@H]21
unit abbreviation: %
INHIBITION: -20.9

Need INHIBITION for each of these compounds.
1. O=C(c1ncoc1C1CC1)N1CCCN(CCCc2ccccc2)CC1
2. N#Cc1ccc(C2CC(=O)Nc3c2cnn3C2CCCC2)cc1 (stereo unspecified)
3. CCOCC(=O)NCC(Cc1cccc(F)c1)N1CCCCC1=O (stereo unspecified)

*A*
69.7
53.3
-88
